test: soluble on expression in E. coli; label from the status in PepcDB or PDB records
value.type: soluble on expression in E. coli

For orientation, consider the following solved cases.
Specify measured soluble on expression in E. coli for `MAHHHHHHMEGQSELVERVVRMQLTSPDFAEYCVAHVTDPKHRFLFSRNEDEAERRLYVRLLEGRGHQKRAETPAVVAPAFAPERTSSLMTHGGTAVLWMSLLDYFSSTPGVRGPHMPHMFRTEADLTAFVDMLDGAQREHVSLEDVVQFMLRRLPMTEVFLYVLCYMCDVRIHEVRRETRRRSSGACVTDSADGASDEKKLQAAGTLLFIANMLLLQHDALERPLRYLSVFEFYMQRMVEALAGTVPKNSPVDTFLRETVMVWSEGHVFGEEALDCMKRAIGCSLG` .
not soluble

Return value of soluble on expression in E. coli for input `MSLTVDFSRFPLAPGDRVLDLGCGAGRHAFECYRRGARVVALDQNAEEIREVAKWFAAMEEAGEAPAGATATAMEGDALALPFPDESFDVVIISEVMEHIPDDKGVLAEMVRVLKPGGRIAITVPRYGPEKVCWTLSDAYHEVEGGHIRIYRADQLLTRIREAGLKPYGTHHAHALHSPYWWLKCAFGVDNDKALPVRAYHKLLVWDIMKKPLATRVAEQALNPLIGKSFVAYATKPHLPPVDAEGHHHHHH` , no commentary.
soluble

Let me know recorded soluble on expression in E. coli for `MAYRERAAWAPEGYMLPLPGACLPSLPENLPGAPRPYRKGVSAGFVFRQGDACVPVVRGMGVVAAFGGEVVKVDPDFQELSEEAWQALLERVREGASPEEMDILRGLEVHVRHPDGRTTVYAHLQAPYPGLKVGSRVHRGDPIGYVGNTGLRGGASRLLFEVWEGEPDRSAFLFQGLEGEELLRRARAFFGLP` , thanks.
soluble

Respond only with soluble on expression in E. coli recorded for `MEEDLLGICGFDSSKKYRLEELAKYQSGSCIEFEDDDEMAVDYPCPFCSDDYDLVELCHHIDEEHQLDANNGICPVCSRRVKMHMVDHITTQHRDVFKRLYKDESYSAFSPGTRKYLQSLIDEPLSTNHTSKSVLDPLLSFIYNPPSPKKSKLVQPDSSSEASMEDNSLIRDSTEKDWESPSPLSDTELLEKAKKREFVQGLISSAIFDHIYNF`
soluble

# return recorded soluble on expression in E. coli for input `MERIDSHVSPRYAQIPTFMRLPHDPQPRGYDVVVIGAPYDGGTSYRPGARFGPQAIRSESGLIHGVGIDRGPGTFDLINCVDAGDINLTPFDMNIAIDTAQSHLSGLLKANAAFLMIGGDHSLTVAALRAVAEQHGPLAVVHLDAHSDTNPAFYGGRYHHGTPFRHGIDEKLIDPAAMVQIGIRGHNPKPDSLDYARGHGVRVVTADEFGELGVGGTADLIREKVGQRPVYVSVDIDVVDPAFAPGTGTPAPGGLLSREVLALLRCVGDLKPVGFDVMEVSPLYDHGGITSILATEIGAELLYQYARAHRTQL`
soluble

Now take the following sequence into account.
Answer with reported soluble on expression in E. coli of `MLYVILRGRLGNNLFQIATAASLTQNFIFCTVNKDQERQVLLYKDSFFKNIKVMKGVPDGIPYYKEPFHEFSRIPYEEGKDLIIDGYFQSEKYFKRSVVLDLYRITDELRKKIWNICGNILEKGETVSIHVRRGDYLKLPHALPFCGKSYYKNAIQYIGEDKIFIICSDDIDWCKKNFIGKRYYFIENTTPLLDLYIQSLCTHNIISNSSFSWWGAWLNENSNKIVIAPQMWFGISVKLGVSDLLPVSWVRLPNNYTLGRYCFALYKVVEDYLLNILRLIWKRKKNMLEHHHHHH`
not soluble
